Assay: Cytotoxicity against Homo sapiens (human) colon cancer cells after 48 hr by SRB assay
Type: functional
Settings: Cancer cell lines
So basically: is TGI under 80 µM? Then TRUE. Not under? Then FALSE.

Worked cases, answers included:
# COMPOUND, DISCRETE LABEL
records = [
    ("O=C(NC(=S)NS(=O)(=O)c1ccc(N2N=C3c4ccccc4CC3C2c2cccs2)cc1)c1ccccc1 (stereo not drawn)", "FALSE"),
    ("NS(=O)(=O)c1ccc(-n2nc3c(c2-c2cccs2)Cc2ccccc2-3)cc1", "TRUE"),
]

Decide: TGI of NS(=O)(=O)c1ccc(N2N=C3c4ccccc4CC3C2c2cccs2)cc1 (stereo not drawn) strictly below 80 µM?
TRUE

Record O=C(c1ccccc1)n1c(-c2ccccc2)cs/c1=N\S(=O)(=O)c1ccc(N2N=C3c4ccccc4CC3C2c2cccs2)cc1 (stereo not drawn) : is its TGI strictly below 80 µM?
FALSE

Problem: For the compound O=C1CS/C(=N\S(=O)(=O)c2ccc(N3N=C4c5ccccc5CC4C3c3cccs3)cc2)N(c2ccccc2)C1 (stereo not drawn) , is TGI under 80 µM?
TRUE

Dear reviewer, please state whether "O=C(Nc1ccccc1)NS(=O)(=O)c1ccc(-n2nc3c(c2-c2cccs2)Cc2ccccc2-3)cc1" has TGI strictly beneath 80 µM.
TRUE

Consider the compound O=C1CCS/C(=N\S(=O)(=O)c2ccc(N3N=C4c5ccccc5CC4C3c3cccs3)cc2)N1c1ccccc1 (stereo not drawn) . Is its TGI strictly less than 80 µM?
TRUE

Given O=S(=O)(/N=c1\scc(-c2ccccc2)n1-c1ccccc1)c1ccc(N2N=C3c4ccccc4CC3C2c2cccs2)cc1 (stereo not drawn) , is recorded TGI strictly lower than 80 µM?
FALSE

Strictly below 80 µM in TGI? O=C1CCS/C(=N\S(=O)(=O)c2ccc(N3N=C4c5ccccc5CC4C3c3cccs3)cc2)N1C(=O)c1ccccc1 (stereo not drawn)
TRUE

Would you kindly verify if TGI of O=S(=O)(NC(=S)Nc1ccccc1)c1ccc(N2N=C3c4ccccc4CC3C2c2cccs2)cc1 (stereo not drawn) is strictly less than 80 µM?
TRUE

Say whether its TGI is strictly beneath 80 µM. Entry: "O=C(NC1CCCCC1)NS(=O)(=O)c1ccc(-n2nc3c(c2-c2cccs2)Cc2ccccc2-3)cc1"
TRUE

---

Test: Cytotoxicity against Homo sapiens (human) breast cancer cells after 48 hr by SRB assay
Type: functional
Settings: Cancer cell lines
// NB: equality with 60 µM counts as no (0); only TGI strictly below is yes (1)

# COMPOUND, DISCRETE LABEL
records = [
    ("O=C(NC(=S)NS(=O)(=O)c1ccc(N2N=C3c4ccccc4CC3C2c2cccs2)cc1)c1ccccc1 (stereo not given)", "no (0)"),
    ("NS(=O)(=O)c1ccc(N2N=C3c4ccccc4CC3C2c2cccs2)cc1 (stereo not given)", "yes (1)"),
    ("O=C1CCS/C(=N\\S(=O)(=O)c2ccc(N3N=C4c5ccccc5CC4C3c3cccs3)cc2)N1C(=O)c1ccccc1 (stereo not given)", "no (0)"),
]

Is the reported TGI for O=C1CS/C(=N\S(=O)(=O)c2ccc(N3N=C4c5ccccc5CC4C3c3cccs3)cc2)N(c2ccccc2)C1 (stereo not given) strictly below 60 µM?
no (0)

Given "O=C(Nc1ccccc1)NS(=O)(=O)c1ccc(-n2nc3c(c2-c2cccs2)Cc2ccccc2-3)cc1" , is recorded TGI strictly lower than 60 µM?
yes (1)

The origin of these recorded values is ChEMBL document CHEMBL3046832.
